system: LTK; details: concentration: 1 μM, replicates: in singlicate; n = 1;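 further: KINOMEscan kinase panel screen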
endpoint: %Inh (%)
Hi! Could you send only the number? It should be in %, unit omitted.

Request: Lab note: need %Inh for `Cc1ccc(NC(=O)Nc2ccccc2)cc1-c1ccc(C(=O)Nc2ccncc2)cc1` on LTK, anyone have it?
Result: 0

Request: Lab note: need %Inh for CC(=O)c1cccc(NC(=O)NC2CCN(c3ccnc(Nc4ccc(F)cc4)n3)C2)c1 (stereo not drawn) on LTK, anyone have it?
Result: 0

Request: Lab note: need %Inh for COc1ccc(Nc2nccc(N3CCC(NC(=O)C(C)c4ccc(Cl)cc4)CC3)n2)cc1 (stereo not drawn) on LTK, anyone have it?
Result: 27

Request: Lab note: need %Inh for `Cc1nccc(-c2c(-c3ccc(F)cc3)ncn2CCCN2CCOCC2)n1.Cl` on LTK, anyone have it?
Result: 30

Request: Lab note: need %Inh for `Cc1cccc2c(-c3ccncn3)c(-c3ccc(F)cc3)nn12` on LTK, anyone have it?
Result: 0

Request: Lab note: need %Inh for `Nc1nccc(-c2c(-c3ccc(F)cc3)ncn2C2CCN(Cc3ccccc3)CC2)n1` on LTK, anyone have it?
Result: 11

Request: Lab note: need %Inh for `O=c1cc(N2CCOCC2)nc2n(Cc3cccc(Cl)c3Cl)c3ccccc3n12` on LTK, anyone have it?
Result: 39

Request: Lab note: need %Inh for `O=c1cc(N2CCOCC2)nc2n(Cc3ccccc3F)ccn12` on LTK, anyone have it?
Result: 21

Request: Lab note: need %Inh for `CN1c2ccc(-c3ccc(C(N)=O)cc3)cc2-c2[nH]ncc2S1(=O)=O` on LTK, anyone have it?
Result: 0

Request: Lab note: need %Inh for `Fc1ccc(-c2nn3cccc(F)c3c2-c2ccncc2)cc1` on LTK, anyone have it?
Result: 8

Request: Lab note: need %Inh for `CCn1c(-c2ccccc2)nc2cnccc21` on LTK, anyone have it?
Result: 0

Request: Lab note: need %Inh for `COc1cc2ncnc(Nc3cccc(Br)c3)c2cc1OC.Cl` on LTK, anyone have it?
Result: 0

Request: Lab note: need %Inh for `Cc1c(Cn2c(C)c(C)n3c(=O)cc(N4CCOCC4)nc23)cccc1C(F)(F)F` on LTK, anyone have it?
Result: 0

Request: Lab note: need %Inh for COc1cccc(CNC(=O)NC2CCN(c3ccnc(Nc4ccc(F)cc4)n3)C2)c1 (stereo not drawn) on LTK, anyone have it?
Result: 59

Request: Lab note: need %Inh for `CCCCc1nn2ncccc2c1-c1ccnc(NC2CC2)n1` on LTK, anyone have it?
Result: 0

Request: Lab note: need %Inh for COC(=O)c1cccc(NC(=O)NC2CCN(c3ccnc(Nc4ccc(F)cc4)n3)C2)c1 (stereo not drawn) on LTK, anyone have it?
Result: 17

Request: Lab note: need %Inh for `CNc1nc(-c2ccc3c(N)n[nH]c3c2)cc(N2C[C@@H](C(=O)NC3CCCCC3)OC[C@H]2C)n1` on LTK, anyone have it?
Result: 0

Request: Lab note: need %Inh for `Cc1ccc(NC(=O)Nc2ccc(Cl)c(C(F)(F)F)c2)cc1-c1ccc(C(=O)Nc2ccncc2)cc1` on LTK, anyone have it?
Result: 4

Request: Lab note: need %Inh for `Cc1ccc(NC(=O)c2ccc(Cl)cc2)cc1-c1ccc(C(=O)Nc2ccncc2)cc1` on LTK, anyone have it?
Result: 19

Request: Lab note: need %Inh for `Cn1cnc2c(N)ncnc21` on LTK, anyone have it?
Result: 0

Request: Lab note: need %Inh for `Cc1ccc(NC(=O)Nc2ccc(Cl)cc2)cc1-c1ccc(C(=O)Nc2ccncc2)cc1` on LTK, anyone have it?
Result: 2

Request: Lab note: need %Inh for `Fc1ccc(-c2nc[nH]c2-c2ccncc2)cc1` on LTK, anyone have it?
Result: 0

Request: Lab note: need %Inh for `Cc1ccc(-c2nc(Nc3ccncc3)c3ccccc3n2)s1` on LTK, anyone have it?
Result: 1

Request: Lab note: need %Inh for `Cc1ccccc1-c1cc(-c2c[nH]nc2-c2ccccn2)ccn1` on LTK, anyone have it?
Result: 0

Request: Lab note: need %Inh for `COc1ccc(CSc2nnc(-c3ccc4nccn4c3)o2)cc1C(F)(F)F` on LTK, anyone have it?
Result: 0

Request: Lab note: need %Inh for `COc1ccc2cc(-c3nc(-c4ccccc4C(C)C)[nH]c3-c3ccncc3)ccc2c1` on LTK, anyone have it?
Result: 3

Request: Lab note: need %Inh for `COc1cccc(C2=C(Nc3cc(Cl)c(O)c(Cl)c3)C(=O)NC2=O)c1` on LTK, anyone have it?
Result: 96.8

Request: Lab note: need %Inh for `O=C1NC(=O)C(c2ccc(Cl)cc2)=C1Nc1cccc(Cl)c1` on LTK, anyone have it?
Result: 0

Request: Lab note: need %Inh for `CNC(=O)c1ccc(C)c(-n2c(C)cc(OCc3ccc(F)cc3F)c(Br)c2=O)c1` on LTK, anyone have it?
Result: 0

Request: Lab note: need %Inh for `Cl.Cl.Cl.N#Cc1ccc(CCNc2nccc(-c3cccc(CN4CCNCC4)c3)n2)cc1` on LTK, anyone have it?
Result: 0
